test: small-molecule microarray binders of probe aCHRDL2, primary screen, biochemical, biotinylated probe, 635/667 nm fluorescence (AID 1100); details: higher = more signal
Decision: composite z-score compared against 0.08; not below it gives Y, below it gives N.

Some solved cases for reference:
| compound.structure | category |
| --- | --- |
| COc1ccc([Si](C)(C)[C@@H]2[C@@H](CCn3cc([C@H](O)c4ccccc4)nn3)O[C@]3(C(=O)N(Cc4cccc(N5CCOC5=O)c4)c4ccccc43)[C@H]2C)cc1 | Y |
| COC(=O)[C@@]1(Cc2ccccc2)[C@H]2c3cc(C(=O)N(C)C)n(Cc4c(-c5ccccc5)noc4C)c3C[C@H]2CN1C(=O)c1ccccc1 | Y |
| CC1=C2[C@@H](CCc3ccccc3)OB(O)C[C@@H]2n2c(=O)n(-c3ccccc3)c(=O)n2C1 | N |
| O=C1O[C@H](c2ccccc2)[C@H](c2ccccc2)N2[C@H]1[C@@H](C(=O)O)[C@]1(C(=O)Nc3ccc(C#CC4=CCCCC4)cc31)[C@H]2c1ccc(OCCO)cc1 | N |

Ask: # bool: composite z-score of O=C1C[C@]2(c3ccc([N+](=O)[O-])cc3)C(=O)N(CC(F)(F)F)c3cc(CO)ccc3[C@H]2N1CC12CC3CC(CC(C3)C1)C2 >= 0.08
Reply: Y

====

Measured z-score, listed per entry.
experiment: PSAC antagonists in infected red cells, primary screen, cell-based, P. falciparum Indochina, OD700, 1 h (AID 1154); conditions: P. falciparum Indochina infected RBC osmotic lysis, higher = more signal, called active from +8 up or from −8 down
Please state the value as a number alone, without comment.

Past entries and their recorded results:
| molecule | z-score |
| --- | --- |
| COC(=O)c1c(CC[C@@H](CO)NC(=O)N[C@@H](Cc2ccccc2)Cn2cc(C3(O)CCCCC3)nn2)oc(C(C)=O)c1C(=O)OC | 2.27 |
| Cc1cc(C)cc(N2C(=O)CS(=O)(=O)C2c2cccc([N+](=O)[O-])c2)c1 (stereo not given) | 0.548 |
| Cc1c(NC(=O)CC#N)c(=O)n(-c2ccccc2)n1C | -0.794 |
| [N-]=[N+]=NCc1ccccc1[C@@H]1OC(c2ccc(OCCCO)cc2)=N[C@]1(Cc1ccccc1N=[N+]=[N-])C(=O)NCc1ccccc1 | 21.8 |

Form field z-score, entry C=CCC(OC(C)=O)[C@@H]1[C@@H](N(Cc2cccc3ccccc23)C(=O)c2ccc(C)cc2)c2cc(OCCCO)ccc2N1C(=O)Cc1ccc(OC)cc1 (stereo not given in full) : 0.786

Kindly note the recorded z-score for C=CCN1C(=O)[C@]2(O[C@H](CCO)[C@@H]([Si](C)(C)c3ccc(OC)cc3)[C@@H]2C)c2cc(NC(=O)[C@H](C)O)ccc21 , which is 9.01

Reported z-score of COCCCNC(=O)[C@@]1(CCC(=O)OC(C)(C)C)N=C(c2ccc(OCCCO)cc2)O[C@H]1c1ccccc1CN=[N+]=[N-] : 23.2

Lab note: measured z-score of COCCOC(=O)N1C(=O)[C@@]2(c3ccccc31)[C@H](c1ccc(O)cc1)N1[C@H](c3ccccc3)[C@H](c3ccccc3)OC(=O)[C@H]1[C@@H]2C(=O)N1CCc2cc(OC)c(OC)cc2C1 was 0.428

Notebook: COCCOC(=O)N1C(=O)[C@@]2(c3cc(C#CCCO)ccc31)[C@H](C(=O)NC[C@H](O)c1ccccc1)[C@H]1C(=O)O[C@H](c3ccccc3)[C@H](c3ccccc3)N1[C@@H]2c1ccc(O)cc1 , z-score read as 1.35

Short answer for COC(=O)c1ccc(OC)c(/C=C\CC(OC(C)=O)c2ccccc2)c1 (stereo not given) : z-score was 8.02

Sure, the documented z-score for CCCN1C(=O)[C@@]2(CCC(=O)OC(C)(C)C)N=C(c3ccc(OCCCO)cc3)O[C@H]2c2ccccc21 is 35.9

Lab note: measured z-score of CCCC[C@@H]1C[C@H]1[C@@H](NC(=O)c1ccc(-c2ccccc2)cc1)c1ccc(-c2ccccc2)cc1 was 2.15

Input C=CC[C@@]1(C(=O)NCC(O)CO)N=C(c2ccc(OCCCO)cc2)O[C@@H]1c1ccccc1N=[N+]=[N-] (stereo not given in full) . Output z-score: 34.8

response.value for COC(=O)[C@@]1(Cc2ccccc2N=[N+]=[N-])COC(c2ccc(OCCCO)cc2)=N1 (field: z-score) = 24.3

z-score reported for this molecule Cc1cc(C)c(C(O)C2C=CC3C(=O)N(c4ccccc4)C(=O)C3N2Nc2ccc(C#N)cc2)c(C)c1 (stereo not given) : 7.4

The origin of these recorded values is PubChem BioAssay.
